# measurementDescription: Hemolytic activity in rabbit RBC assessed as hemolytic rate at 32 uM incubated for 1 hrs by spectrophotometric analysis
# Format: toxicity, cell-based, Oryctolagus cuniculus, Erythrocyte
# measurementSetup: red blood cells (RBC), read-out: Activity
hemolysis at 1 h, 32 µM: recorded values

- substance: "H-GLFDIIKKIAESF-NH2"
  hemolysis at 1 h, 32 µM: "< 10%"
- substance: "H-GLFKIIKKIAKSF-NH2"
  hemolysis at 1 h, 32 µM: "< 10%"

Source: ChEMBL document CHEMBL6182917
